# TESTED ON: T1, human TIM-3 full length, overexpressed on CHO-S cells (human, UniProt Q8TDQ0 22-301)
# T1 construct: cells fixed with 4% PFA on plates; also called HAVCR2; Tim-3-overexpressing CHO-S cells
# EXPERIMENTAL DETAILS: cell-based ELISA on fixed CHO-S cells overexpressing human TIM-3;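 further: antibody binding at serial dilutions to PFA-fixed cells for 1 h at 37 °C, read as TMB colour signal after acid stop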
VALUE TYPE: pEC50
Conceptually, pEC50 converts a concentration in mol/L into minus its log10.

{"BINDER": "Ch1701 (antibody, human IgG4 S228P, kappa, V domains shown) VH: EVQLQQSGPELVKPGASVKISCKASGYTFTDYYMNWVKQSHGKSLEWIADIIPNNGGSKYNQKFKDKATLTVDKSSSTAYMELRSLTSEDSAVYYCATWGYGSSYRWFDYWGQGTLVSVSA VL: DIQMTQSPASQSASLGESVTITCLASQPIGIWLAWYQQKPGKSPQLLIYAATSLADGVPSRFSGSGSGTKFSFKISSLQAEDFVSYYCQQLYSSPWTFGGGTKLEIKR", "EXPERIMENTAL RESULT": 9.78}

Moving on to another binder below.
In: Which value of pEC50 has been reported for h1701-008 (antibody, human IgG4 S228P, kappa, V domains shown, Humanized IgG4 (S228P)/kappa) VH: QVQLVQSGAEVKKPGASVKVSCKASGYTFTDYYMNWVRQAPGQGLEWIGDIIPNNGGSKYNQKFKDRVTMTTDTSTSTAYMELRSLRSDDTAVYYCARWGYGSSYRWFDYWGQGTLVTVSS VL: DIQMTQSPSSLSASVGDRVTITCLASQPIGIWLAWYQQKPGKSPKLLIYAATSLADGVPSRFSGSGSGTDFTFTISSLQPEDIATYYCQQLYSSPWTFGGGTKVEIKR in the records?
Out: 8.62
